This collection of values is drawn from patent US20250011418A1.

- measurement.target: T1, Sec8-His (section 8 (Sec8), an antigenic region of CSP-1, tagged with a polyhistidine (His) tag)
- T1 construct: also called Sec8-His antigen
- T1 chain: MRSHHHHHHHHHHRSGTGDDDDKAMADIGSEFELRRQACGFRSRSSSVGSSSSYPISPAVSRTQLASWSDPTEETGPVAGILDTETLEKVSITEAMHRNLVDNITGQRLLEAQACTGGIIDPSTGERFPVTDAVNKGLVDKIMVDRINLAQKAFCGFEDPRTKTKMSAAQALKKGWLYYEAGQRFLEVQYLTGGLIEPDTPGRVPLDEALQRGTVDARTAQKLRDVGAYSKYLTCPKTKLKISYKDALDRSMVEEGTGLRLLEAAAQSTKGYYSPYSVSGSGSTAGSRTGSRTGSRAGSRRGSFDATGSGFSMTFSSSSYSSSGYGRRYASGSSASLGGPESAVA
- procedure.text: BLI (Octet), single shot: antibody on anti-human IgG tips, 24 nM Sec8-His
quantity: binding result

{"binder": "humanized anti-CSP-1 antibody, Antibody Number 38 (Table 1) (antibody, human IgG1, V domains shown, also called Antibody 38) VH: EVQLVESGGGLVQPGGSLRLSCAASGFTFSRYGMSWVRQAPGKGLEWVATISIGGTYTYYPDSMKGRFTISRDNSKNTLYLQMNSLRAEDTAVYYCARRGYGNYSYYGMDYWGQGTLVTVSS VL: DIVMTQSALSNPVTLGQSASISCRSSKSLLHSNGITYLYWYLQKPGQSPQLLIYQMSNRASGVPDRFSSSGSGTDFTLKISRVEAEDVGVYYCAQNLELPLTFGQGTKLEIK", "quantity": "binding result", "value": "binds"}
{"binder": "humanized anti-CSP-1 antibody, Antibody Number 24 (Table 1) (antibody, human IgG1, V domains shown, also called Antibody 24) VH: EVQLVESGGDLVKPGGSLKLSCAASGFTFSRYGMSWVRQTPDKRLEWVATISIGGTYTYYPDSMKGRFTISRDNAKNTLYLQMSSLKSEDTAMYYCARRGYGNYSYYGMDYWGQGTSVTVSS VL: DIVMTQAAFSNPVTLGTSASISCRSSKSLLHSDGITYLYWYLQKPGQSPQLLIYQMSNLASGVPDRFSSSGSGTDFTLRISRVEAEDVGVYYCAQNLELPLTFGAGTKLELK", "quantity": "binding result", "value": "binds"}
